# Tested system: CRBN-DDB1 (Homo sapiens, UniProt Q96SW2)
# Construct: 6xHis (given for the complex); made in house; host or cells: Sf9 cells (Invitrogen), pFastBac
# Experimental details: CRBN-DDB1 Ligand-Displacement AlphaScreen Assay (thalidomide competition);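 note: streptavidin donor and nickel chelate acceptor bead proximity signal after 30 min incubation, normalized with no-protein background as 0% and DMSO wells as 100% activity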
# Type: binding
# Assay conditions: read-out: CRBN alpha IC50
Kindly supply the reported log10(IC50) values for the records listed here.
Quick note: numbers are log10 of IC50, with nM as the unit.

Molecule	Tested system	log10(IC50)
O=C1CCC(N2C(=O)c3ccc(C(=O)NCc4ccccc4)cc3C2=O)C(=O)N1 (stereo not drawn)	CRBN-DDB1 (Homo sapiens, UniProt Q96SW2)	2.79
CCN(CC)c1cccc2c1C(=O)N(C1CCC(=O)NC1=O)C2=O (stereo not drawn)	CRBN-DDB1 (Homo sapiens, UniProt Q96SW2)	2.21
O=C1CCC(N2C(=O)c3cccc(F)c3C2=O)C(=O)N1 (stereo not drawn)	CRBN-DDB1 (Homo sapiens, UniProt Q96SW2)	2.78
CC(=O)Nc1cccc2c1C(=O)N(C1CCC(=O)NC1=O)C2=O (stereo not drawn)	CRBN-DDB1 (Homo sapiens, UniProt Q96SW2)	2.82

Okay, now this molecule:
-- ask Please look up its log10(IC50): C[C@]1(N2C(=O)c3cccc(O)c3C2=O)CCC(=O)NC1=O
-- reply 4.75

---

# Tested on: Calu6
# Experimental details: Cell viability, ATPlite 72 hours
# Assay type: cell-based
# Assay conditions: Homo sapiens, Calu-6
Measurement type: IC50 (nM)
Numbers only, in nM.

-- ask Please look up its IC50: Cc1sc2c(c1C)C(c1ccc(Cl)cc1)=N[C@@H](CC(=O)NCCCCCCCCNC(=O)COc1cccc3c1C(=O)N(C1CCC(=O)NC1=O)C3=O)c1nnc(C)n1-2 (stereo partly shown)
-- reply 233

---

# Tested system: BRD4 adjoined to nanoluciferase (Nluc) (Homo sapiens, UniProt O60885+Q96SW2)
# Construct: expressed in transfected cells
# Experimental details: BRD4 Dual Luciferase Assay;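 note: transduced reporter cells exposed to compound for 4 h, then Nluc and Fluc luminescence read, each normalized to DMSO controls and expressed as Nluc/Fluc ratio per well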
# Type: cell-based
# Assay conditions: BRD4 remaining at Emax; read-out: BRD4− Emax (percent remaining)
Measurement type: Emax (%)
Give bare numbers, in %.

Check out these entries, answers already filled in.
Compound	Endpoint unit	Emax
Cc1sc2c(c1C)C(c1ccc(Cl)cc1)=N[C@@H](CC(=O)NCCNC(=O)COc1cccc3c1C(=O)N(C1CCC(=O)NC1=O)C3=O)c1nnc(C)n1-2 (stereo partly drawn)	%	84
Cc1c(C(=O)NCCCCNC(=O)COc2cccc3c2C(=O)N(C2CCC(=O)NC2=O)C3=O)sc2c1C(c1ccc(Cl)cc1)=N[C@@H](CC(=O)NCCCN1CCN(C)CC1)c1nnc(C)n1-2 (stereo partly drawn)	%	26.2
Cc1sc2c(c1C)C(c1ccc(Cl)cc1)=N[C@@H](CC(=O)NCCCCOc1cccc3c1C(=O)N(C1CCC(=O)NC1=O)C3=O)c1nnc(C)n1-2 (stereo partly drawn)	%	91.2
Cc1sc2c(c1C)C(c1ccc(Cl)cc1)=N[C@@H](CC(=O)NCCCCCCCCOc1cccc3c1C(=O)N(C1CCC(=O)NC1=O)C3=O)c1nnc(C)n1-2 (stereo partly drawn)	%	78.1
Cc1c(C(=O)NCCCCCCCCNC(=O)COc2cccc3c2C(=O)N(C2CCC(=O)NC2=O)C3=O)sc2c1C(c1ccc(Cl)cc1)=N[C@@H](CC(=O)NCCCN1CCN(C)CC1)c1nnc(C)n1-2 (stereo partly drawn)	%	45.6
CC[C@@H]1C(=O)N(C)c2cnc(Nc3ccc(C(=O)NCCCCCCNC(=O)COc4cccc5c4C(=O)N(C4CCC(=O)NC4=O)C5=O)cc3OC)nc2N1C1CCCC1 (stereo partly drawn)	%	43.7
Cc1sc2c(c1C)C(c1ccc(Cl)cc1)=N[C@@H](CC(=O)NCCCCCCNC(=O)COc1cccc3c1C(=O)N(C1CCC(=O)NC1=O)C3=O)c1nnc(C)n1-2 (stereo partly drawn)	%	44.7
Cc1sc2c(c1C)C(c1ccc(Cl)cc1)=N[C@@H](CC(=O)NCCOCCOCCNC(=O)COc1cccc3c1C(=O)N(C1CCC(=O)NC1=O)C3=O)c1nnc(C)n1-2 (stereo partly drawn)	%	43

Okay, now this compound:
-- ask Please look up its Emax: Cc1sc2c(c1C)C(c1ccc(Cl)cc1)=N[C@@H](CC(=O)NCCCCCCOc1cccc3c1C(=O)N(C1CCC(=O)NC1=O)C3=O)c1nnc(C)n1-2 (stereo partly drawn)
-- reply 75.5
